The entries below come with measured IC50 values attached.
- system_under_test: Dual specificity mitogen-activated protein kinase kinase 1 (Homo sapiens, UniProt Q02750)
- Sequence (Q02750 whole entry): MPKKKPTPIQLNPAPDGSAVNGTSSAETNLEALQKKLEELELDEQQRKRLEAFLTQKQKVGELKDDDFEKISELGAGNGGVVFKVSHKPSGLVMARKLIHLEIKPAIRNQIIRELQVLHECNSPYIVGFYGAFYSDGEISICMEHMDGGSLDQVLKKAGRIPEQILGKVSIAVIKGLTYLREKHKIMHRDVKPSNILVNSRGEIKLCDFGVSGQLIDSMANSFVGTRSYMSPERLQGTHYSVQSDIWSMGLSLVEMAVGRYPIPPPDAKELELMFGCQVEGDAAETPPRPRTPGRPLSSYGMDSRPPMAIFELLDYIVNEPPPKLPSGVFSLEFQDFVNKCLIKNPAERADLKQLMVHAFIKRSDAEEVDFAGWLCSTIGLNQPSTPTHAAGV
- assay_remarks: Inhibitory activity against MEK

// worked examples, IC50 included
Cc1c(NS(=O)(=O)c2ccccc2)cn2ncc(C#N)c(Nc3ccc(Oc4ccccc4)cc3)c12 : 14.6 µM
CCOC(=O)c1cn2ncc(C#N)c(Nc3ccccc3)c2c1C : > 25 µM

Turning now to a further record.
Q) Enter recorded IC50 with Dual specificity mitogen-activated protein kinase kinase 1 (Homo sapiens, UniProt Q02750) for "CC(=O)NCc1cnn2cc(C(=O)O)c(C)c2c1Nc1ccc(Oc2ccccc2)cc1" here.
A) > 25 µM

src = ChEMBL document CHEMBL1148629
